What self-cleavage was measured for each of the following?
B1: LINE1-full (parent)
chain: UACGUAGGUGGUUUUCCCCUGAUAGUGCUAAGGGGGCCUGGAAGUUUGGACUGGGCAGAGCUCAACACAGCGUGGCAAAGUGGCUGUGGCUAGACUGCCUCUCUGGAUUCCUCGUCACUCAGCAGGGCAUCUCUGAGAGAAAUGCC

variants of: B1; experiment: self-cleavage, relative activity (ratio to wild type); higher = more cleavage; in vitro, sequencing; the parent is a self-cleaving ribozyme
Lab note: write the figure by itself, no unit.

Query :: What self-cleavage value was documented for this variant, G74U U143C ?
Result :: 1.48

Query :: What self-cleavage value was documented for this variant, C95U U100C ?
Result :: 0.59

Query :: What self-cleavage value was documented for this variant, U96A A140G ?
Result :: 0.06

Query :: What self-cleavage value was documented for this variant, U1C A57U ?
Result :: 0.09

Query :: What self-cleavage value was documented for this variant, U15C G70A ?
Result :: 0.33

Query :: What self-cleavage value was documented for this variant, G49A U73C ?
Result :: 2.51

Query :: What self-cleavage value was documented for this variant, A30C A140G ?
Result :: 1

Query :: What self-cleavage value was documented for this variant, U12A A50C ?
Result :: 0.57

Query :: What self-cleavage value was documented for this variant, A6G G137U ?
Result :: 0.81

Query :: What self-cleavage value was documented for this variant, A117U C128A ?
Result :: 0.99

Query :: What self-cleavage value was documented for this variant, U9A U134C ?
Result :: 1.4

Query :: What self-cleavage value was documented for this variant, G48A A141G ?
Result :: 1.42

Query :: What self-cleavage value was documented for this variant, U39G U102C ?
Result :: 1.34
